Please provide measured inhibition for the entries that follow.
Molecular target: Tyrosine-protein kinase ABL1 (Homo sapiens) + Ras and Rab interactor 1 (Homo sapiens) (UniProt P00519+Q13671)
Sequence (P00519 whole entry, looked up): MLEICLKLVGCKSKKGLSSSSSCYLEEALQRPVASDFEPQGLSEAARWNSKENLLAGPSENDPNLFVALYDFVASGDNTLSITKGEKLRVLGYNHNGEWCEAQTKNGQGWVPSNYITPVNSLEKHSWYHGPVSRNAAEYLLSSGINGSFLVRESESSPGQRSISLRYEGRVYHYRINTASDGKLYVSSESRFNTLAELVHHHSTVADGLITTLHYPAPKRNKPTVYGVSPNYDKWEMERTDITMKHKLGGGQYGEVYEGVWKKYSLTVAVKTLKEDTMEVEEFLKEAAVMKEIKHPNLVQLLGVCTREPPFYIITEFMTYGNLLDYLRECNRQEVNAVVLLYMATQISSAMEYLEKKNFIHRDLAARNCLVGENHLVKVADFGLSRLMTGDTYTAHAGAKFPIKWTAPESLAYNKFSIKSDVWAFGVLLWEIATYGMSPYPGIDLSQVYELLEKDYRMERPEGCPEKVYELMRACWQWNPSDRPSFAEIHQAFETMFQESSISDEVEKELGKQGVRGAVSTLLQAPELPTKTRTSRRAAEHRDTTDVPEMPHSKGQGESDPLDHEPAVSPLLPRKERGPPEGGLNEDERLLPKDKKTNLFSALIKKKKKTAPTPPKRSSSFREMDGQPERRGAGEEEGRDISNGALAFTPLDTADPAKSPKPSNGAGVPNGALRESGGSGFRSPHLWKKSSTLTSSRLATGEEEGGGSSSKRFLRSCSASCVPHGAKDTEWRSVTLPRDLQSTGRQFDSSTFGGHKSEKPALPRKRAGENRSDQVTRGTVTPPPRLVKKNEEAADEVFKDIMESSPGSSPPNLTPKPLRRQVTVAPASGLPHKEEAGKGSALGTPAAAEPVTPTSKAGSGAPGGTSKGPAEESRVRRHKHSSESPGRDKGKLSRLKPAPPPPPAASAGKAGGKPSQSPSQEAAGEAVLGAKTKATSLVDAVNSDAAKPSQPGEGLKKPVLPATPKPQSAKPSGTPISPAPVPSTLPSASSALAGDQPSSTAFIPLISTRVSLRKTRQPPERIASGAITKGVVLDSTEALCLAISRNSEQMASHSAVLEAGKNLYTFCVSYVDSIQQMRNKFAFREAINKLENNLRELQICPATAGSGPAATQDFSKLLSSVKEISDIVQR
Sequence (Q13671 whole entry, looked up): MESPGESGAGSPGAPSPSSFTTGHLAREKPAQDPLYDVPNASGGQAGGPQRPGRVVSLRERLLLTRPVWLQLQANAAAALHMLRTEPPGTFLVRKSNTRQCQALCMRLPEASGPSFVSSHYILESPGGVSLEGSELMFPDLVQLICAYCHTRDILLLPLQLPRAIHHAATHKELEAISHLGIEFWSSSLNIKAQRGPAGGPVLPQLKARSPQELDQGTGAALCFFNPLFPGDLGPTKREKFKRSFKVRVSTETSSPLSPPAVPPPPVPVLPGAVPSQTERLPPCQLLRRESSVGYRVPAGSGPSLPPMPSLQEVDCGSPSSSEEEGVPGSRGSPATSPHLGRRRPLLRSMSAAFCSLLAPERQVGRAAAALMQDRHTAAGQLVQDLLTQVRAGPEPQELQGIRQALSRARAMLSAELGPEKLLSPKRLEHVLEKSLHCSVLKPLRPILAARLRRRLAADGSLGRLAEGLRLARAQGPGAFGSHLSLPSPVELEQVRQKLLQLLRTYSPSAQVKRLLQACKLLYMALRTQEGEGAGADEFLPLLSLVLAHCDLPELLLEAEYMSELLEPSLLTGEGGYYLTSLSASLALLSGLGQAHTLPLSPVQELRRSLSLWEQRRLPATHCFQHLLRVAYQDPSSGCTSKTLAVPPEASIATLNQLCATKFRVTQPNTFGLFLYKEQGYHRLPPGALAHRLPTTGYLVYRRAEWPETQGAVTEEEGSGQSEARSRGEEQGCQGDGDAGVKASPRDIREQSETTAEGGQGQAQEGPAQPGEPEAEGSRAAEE
Assay: inhibitors of Rin1-Abl protein binding, primary screen, biochemical, TR-FRET (AID 588664)
Details: at 7.35 µM, active compounds read high
Out of some 360,000 compounds screened, about 1,400 (0.39%) were called active. The list comes from a sample in which actives are over-represented; it also holds close analogues and randomly drawn compounds.
Reply numerically in %, unit not repeated.

Requested field: inhibition. Item: CCOc1ccc(CNC(=O)C2CCCN(c3nnc(C)c4c(C)n(-c5ccccc5)nc34)C2)cc1 (stereo not given)
20.2

Requested field: inhibition. Item: O=C(Nc1ccc(OC(F)(F)F)cc1)c1ccc2c(c1)no[n+]2[O-]
6.4

Requested field: inhibition. Item: CCOC(=O)Cc1ncccc1C(=O)Nc1ccc(OC(F)(F)F)cc1
-0.49

Requested field: inhibition. Item: O=[N+]([O-])c1cc(C(F)(F)F)ccc1NCCc1ccncc1
-3.62

Requested field: inhibition. Item: CCOc1ccc(N(CC)S(=O)(=O)c2cccc3nsnc23)cc1
-2.8

====

Biological target: Tyrosine-protein kinase ABL1 (Homo sapiens) + Ras and Rab interactor 1 (Homo sapiens) (UniProt P00519+Q13671)
Assay: inhibitors of Rin1-Abl protein binding, primary screen, biochemical, TR-FRET (AID 588664)
Details: at 7.35 µM, active compounds read high
Among all 360,000 compounds or so, about 1,400 (0.39%) were called active. The sample holds actives, similar compounds and a random draw of the others, so the mix is not that of the screen.
assay endpoint: inhibition (%)
Reply numerically in %, unit not repeated.

Requested field: inhibition. Item: COc1cccc(N2C(=O)C3CCCN3C2c2ccc(F)cc2)c1 (stereo not given)
1.17

Requested field: inhibition. Item: COc1ccc(NC(=O)CSc2nnc(-c3ccccc3F)n2C2CC2)cc1S(N)(=O)=O
-3.31

Requested field: inhibition. Item: Cc1nn(-c2ncc(C(F)(F)F)cc2Cl)c(=O)n1-c1ccccc1
7.67

Requested field: inhibition. Item: COc1cc(C(=O)N/C(=C\c2cn(C)c3ccccc23)C(=O)N2CCOCC2)cc(OC)c1OC
3.65

Requested field: inhibition. Item: CC(OC(=O)c1ccccc1NCCO)C(=O)Nc1ccnn1C(C)C (stereo not given)
44.6

Requested field: inhibition. Item: Cn1c(=O)cc(SCC(=O)N2CCCC2)c2cc(Cl)ccc21
-25.5

Requested field: inhibition. Item: COCCNC(=O)COc1ccc(N(C)S(=O)(=O)c2ccc3ccccc3c2)cc1
1.04

Requested field: inhibition. Item: CC(OC(=O)c1ccc(NC(=O)CC#N)cc1)C(=O)Nc1ccc(S(=O)(=O)N2CCCC2)cc1 (stereo not given)
2.43

Requested field: inhibition. Item: Cc1nn(CC#N)c(=O)n1N(C)c1ncc(C(F)(F)F)cc1Cl
2.69

Requested field: inhibition. Item: NS(=O)(=O)c1ccc(CCNC(=S)Nc2ccc(S(N)(=O)=O)cc2)cc1
-1.51

Requested field: inhibition. Item: C[C@H](CO)N1C[C@H](C)[C@@H](CN(C)C(=O)C2CCCCC2)OCc2cnnn2CCCC1=O
-1.65

Requested field: inhibition. Item: COc1ccc(N2C(=O)C3CCCN3C2c2cc(OC)c(OC)cc2OC)cc1 (stereo not given)
-1.54

Requested field: inhibition. Item: COc1ccc(Cl)cc1-n1c(=S)sc2c(=O)n(-c3ccc(F)cc3)c(SCC(=O)O)nc21
3.75

Requested field: inhibition. Item: COC(=O)C1=C(N)Oc2c(oc(CO)cc2=O)C1c1c(F)cccc1Cl (stereo not given)
1.15

Requested field: inhibition. Item: CN(CC(=O)NCCc1ccc(S(N)(=O)=O)cc1)CC(=O)Nc1ccc(Cl)cc1
2.85

Requested field: inhibition. Item: Cc1cccc(N(C)C(=O)CN2C(=O)COc3ccc(S(=O)(=O)N4CCCCCC4)cc32)c1
9.47

Requested field: inhibition. Item: CC(=O)Nc1ccc(NC(=O)CN2C(=O)COc3ccc(S(=O)(=O)N4CCCCC4)cc32)cc1
2.56

Requested field: inhibition. Item: O=C1NC[C@@H](c2ccccc2)OC(=O)[C@H](Cc2ccc(F)cc2)CC/C=C/C[C@H]1CC(=O)N(CCO)Cc1ccccc1
-0.64

Requested field: inhibition. Item: CC(C)Cn1cnc2c1c(=O)n(CC(O)c1ccccc1)c(=O)n2CC(C)C (stereo not given)
2.26

Requested field: inhibition. Item: CN(C)c1ccc(CNC(=O)CN2C(=O)COc3ccc(S(=O)(=O)N4CCCC4)cc32)cc1
2.18

====

Please provide measured inhibition for the entries that follow.
Molecular target: Tyrosine-protein kinase ABL1 (Homo sapiens) + Ras and Rab interactor 1 (Homo sapiens) (UniProt P00519+Q13671)
Assay: inhibitors of Rin1-Abl protein binding, primary screen, biochemical, TR-FRET (AID 588664)
Conditions: at 7.35 µM, active compounds read high
In all, about 360,000 compounds went through this assay and about 1,400 (0.39%) were called active. Shown is part of a subset that was picked to be rich in actives.
Reply numerically in %, unit not repeated.

Requested field: inhibition. Item: CSc1ncnc2c1ncn2CCCNCC1CCCCC1
-2.89

Requested field: inhibition. Item: CCOc1cc(C(=S)N2CCOCC2)ccc1O
-1.01

Requested field: inhibition. Item: O=C(Nc1nn(Cc2ccccc2F)cc1Br)c1cccs1
-1.24

Requested field: inhibition. Item: Cc1ccccc1N1CCN(CC(=O)NCc2ccc(Cl)cc2)CC1
1.14

Requested field: inhibition. Item: O=C(NCCc1ccc(C(F)(F)F)cc1)c1ccc2c(c1)OCO2
-1

Requested field: inhibition. Item: CN(Cc1c(F)cccc1Cl)C(=O)CNC(=O)c1ccc2c(c1)OCO2
34.7

Requested field: inhibition. Item: O=S1(=O)CCN(C2CCCCCCCCCCC2)CC1
1.94

Requested field: inhibition. Item: CSc1ncnc2c1ncn2CC(=O)C1CCC2C3CCC4=CC(=O)CCC4(C)C3CCC12C (stereo not given)
13.2

Requested field: inhibition. Item: COc1ccc(C)cc1NC(=S)N1CCOCC1
-0.53

Requested field: inhibition. Item: CC1=C[C@H]2Cc3cc(C)cc(C)c3S(=O)(=O)[C@@H]2C=C1
3.36

====

Target: Tyrosine-protein kinase ABL1 (Homo sapiens) + Ras and Rab interactor 1 (Homo sapiens) (UniProt P00519+Q13671)
Assay: inhibitors of Rin1-Abl protein binding, primary screen, biochemical, TR-FRET (AID 588664)
Conditions: at 7.35 µM, active compounds read high
In all, about 360,000 compounds went through this assay and about 1,400 (0.39%) were called active. The full list was thinned out, with actives kept by preference.
Please provide measured inhibition for the entries that follow.
Reply numerically in %, unit not repeated.

Requested field: inhibition. Item: CCCC(=O)C1=C(N(C)c2ccccc2)CC(C)(C)C(C(=O)OC)C1=O (stereo not drawn)
0.08

Requested field: inhibition. Item: CC(C)(C)NC(=O)NC(=O)COC(=O)Cn1c(C(F)(F)F)nc2ccccc21
2.76

Requested field: inhibition. Item: C/C=C/C(=O)Nc1nnc(C(C)C)s1
-0.75

====

Target: Tyrosine-protein kinase ABL1 (Homo sapiens) + Ras and Rab interactor 1 (Homo sapiens) (UniProt P00519+Q13671)
Assay: inhibitors of Rin1-Abl protein binding, primary screen, biochemical, TR-FRET (AID 588664)
Details: at 7.35 µM
The campaign covered roughly 360,000 compounds. About 1,400 (0.39%) were called active. No stated cut-off is given here; in the data, active means inhibition above about 5% (passing the limit was not always enough); inactive means the rest. This is one part of a sample in which actives are shown more often than they occur.
Can you answer with just one of these options? true (1) (active), false (0) (inactive)

Test call for this compound, please: COc1cc(CNc2ncnc3c2ncn3[C@H]2CN(Cc3cccs3)C[C@@H](CO)O2)cc(OC)c1OC
false (0)

Test call for this compound, please: C#CCOCCOCCOCCNc1nc(N2CCN(C(=O)C(Cc3ccc(O)cc3)n3cc(C(N)CC(C)C)nn3)CC2)nc(N2CCN(C(=O)C(Cc3ccc(O)cc3)n3cc(C(N)C(C)CC)nn3)CC2)n1 (stereo not given)
true (1)

Test call for this compound, please: O=C(O)c1cccc2c1C(=O)N(C1CCCC1)C2
false (0)

Test call for this compound, please: C#CCOCCOCCOCCNc1nc(N2CCN(C(=O)[C@H](Cc3ccc(O)cc3)n3cc(C(N)CC(C)C)nn3)CC2)nc(N2CCN(C(=O)[C@H](CCC(=O)O)n3cc(C(N)[C@H](C)CC)nn3)CC2)n1 (stereo not given in full)
false (0)

Test call for this compound, please: Oc1ccc2ccc3cccc[n+]3c2c1
false (0)

====

Target: Tyrosine-protein kinase ABL1 (Homo sapiens) + Ras and Rab interactor 1 (Homo sapiens) (UniProt P00519+Q13671)
Experiment: inhibitors of Rin1-Abl protein binding, primary screen, biochemical, TR-FRET (AID 588664)
Conditions: at 7.35 µM, active compounds read high
Among all 360,000 compounds or so, about 1,400 (0.39%) were called active. What follows is part of a selection rich in actives, with near analogues and random picks from the rest.
Please provide measured inhibition for the entries that follow.
Reply numerically in %, unit not repeated.

Requested field: inhibition. Item: NC(=O)c1ccsc1NC(=O)COC(=O)Cc1n[nH]c(=O)c2ccccc12
1.63

Requested field: inhibition. Item: Cc1ccccc1CN1C[C@@H]2C[C@@H](c3ccc4nsnc4c3)N3CCC[C@@]23C1=O
8.18

Requested field: inhibition. Item: Cc1ccccc1N1CCN(C(=O)c2cccnc2)CC1
1.88

Requested field: inhibition. Item: CCc1nnc(NC(=O)C2CCN(C(=O)c3ccccc3C)CC2)s1
-1.24

Requested field: inhibition. Item: CCCn1c(N)c(C(=O)CSc2nnc(Cc3cccs3)n2C2CC2)c(=O)[nH]c1=O
2.22

Requested field: inhibition. Item: CC(NS(=O)(=O)c1ccc(OCC(=O)N2CCCC2)cc1)c1ccccc1 (stereo unspecified)
1.07

Requested field: inhibition. Item: CCCn1c(N)c(C(=O)CSc2nnc(-c3cccnc3)n2-c2ccc(C)cc2C)c(=O)[nH]c1=O
12.2

Requested field: inhibition. Item: CCOC(=O)C1CCCN(C(=O)c2ccc(C)c(S(=O)(=O)N3CCCCC3)c2)C1 (stereo unspecified)
2.16

Requested field: inhibition. Item: O=C(NC(=S)Nc1ccc(S(=O)(=O)Nc2ncccn2)cc1)c1cccc(Br)c1
-0.5

Requested field: inhibition. Item: O=C(CSCc1ccc([N+](=O)[O-])cc1)Nc1cccc(C(=O)Nc2ccccc2C(=O)O)c1
11.8

Requested field: inhibition. Item: Cc1cccc(OCc2nnc(SCc3nc4cc(C(F)(F)F)ccc4c(=O)[nH]3)o2)c1
4.23

Requested field: inhibition. Item: CCOC(=O)CN1CCC(c2ccccc2)CC1
1.17

Requested field: inhibition. Item: CC(CCO)Nc1nc2c([nH]1)c(=O)n(C)c(=O)n2C (stereo unspecified)
7.16

Requested field: inhibition. Item: CCOC(=O)CN(C(=O)COc1nc(C)cc(C)c1C#N)c1ccc(Cl)cc1
6.34

Requested field: inhibition. Item: CC1(C)C=Cc2c(ccc3c2OC[C@@H](c2ccc(O)cc2O)C3)O1
-2.38

Requested field: inhibition. Item: CCOC(=O)N1CCC(c2cc(=O)n(-c3ccccc3)[nH]2)CC1
11.4

Requested field: inhibition. Item: CCNS(=O)(=O)c1ccc(NC(=O)c2cncc(Br)c2)cc1
-2.97

Requested field: inhibition. Item: CC(C)CNS(=O)(=O)c1ccc(C(=O)Nc2ccc3c(c2)OCO3)cc1
12.8

Requested field: inhibition. Item: CCC(C)C(=O)Nc1ccccc1N1CCN(c2ccc(F)cc2)CC1 (stereo unspecified)
1.3

Requested field: inhibition. Item: CNS(=O)(=O)c1ccc(NC(=O)Nc2ccc3c(c2)OCO3)cc1
-0.38

Requested field: inhibition. Item: COc1cc2c(cc1CNC[C@H]1O[C@@H](n3cnc(C(N)=O)n3)[C@H](O)[C@@H]1O)OCO2
-2.98

Requested field: inhibition. Item: Cc1ccc(C2CC(c3cccc(C)c3)n3nc(N)nc3N2)cc1 (stereo unspecified)
-1.41

Requested field: inhibition. Item: C=CCN(C(=O)Cn1ncc2c1-c1cc(C)ccc1OC2)c1ccccc1
2.13

Requested field: inhibition. Item: COc1ccc(NC(=O)CSCc2ccc([N+](=O)[O-])cc2)cc1OC
0.28

Requested field: inhibition. Item: OCC(CO)(CO)NCc1ccc(-c2ccccc2)cc1
-1.05

Requested field: inhibition. Item: CCOC(=O)N1CCN(C(=O)C2CCCN(c3ncnc4c3sc3cccc(F)c34)C2)CC1 (stereo unspecified)
6.58

Requested field: inhibition. Item: Cc1ccccc1-c1nnc(SCC(=O)NCc2ccc3c(c2)OCO3)n1C
0.29

Requested field: inhibition. Item: Cc1ccccc1CN1CCN(CC(=O)NCc2ccccn2)C1=O
-1.59

Requested field: inhibition. Item: Cc1ccccc1CN1C[C@@H]2C[C@@H](c3cn(C)nc3-c3ccccc3)N3CCC[C@@]23C1=O
-1.71

Requested field: inhibition. Item: CCOC(=O)COc1nc(C)cc(C(F)(F)F)c1C#N
0.37

Requested field: inhibition. Item: OCCNc1nc2ccccc2n1-c1ncnc2sc3c(c12)CCC3
-1.62
